TESTED_SYSTEM: mouse PD-L1 (Sino Biological, Cat #50010-M08H) (mouse, UniProt Q9EP73 19-238)
Sequence (Q9EP73 19-238 limits assumed, stated change not applied): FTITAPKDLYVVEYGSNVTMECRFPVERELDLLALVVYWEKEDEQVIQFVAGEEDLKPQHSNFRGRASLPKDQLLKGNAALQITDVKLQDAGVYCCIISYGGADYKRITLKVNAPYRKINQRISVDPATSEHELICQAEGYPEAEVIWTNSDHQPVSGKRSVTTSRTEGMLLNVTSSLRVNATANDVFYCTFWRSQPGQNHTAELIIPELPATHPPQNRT
ASSAY_SUMMARY: ELISA
ASSAY_METRIC: binding result

>>> value_observed("73C8 (antibody, human IgG1, V domains shown) VH: QEQLEESGGGLVQPEGSLTLTCTVSGFSFSGDYYMSWVRQAPGKGLEWVASIYTGSLNTYYATWAKGRFTISLTSSTTVTLQMTSLTAADTATYFCARRNKNADYGHFDLWGPGTLVTVSS VL: YDMTQTPASVEVAVGGTVTIKCQASQSINDRLAWYQQKPGQPPKLLIYAASTLASGVPSRFRGSGSGTDFTLTISDLECADAATYYCQQGWTVSSLDNAFGGGTEVVAM")
"no binding"
>>> value_observed("33E8 (antibody, human IgG1, V domains shown) VH: QSLEESGGDLVKPGASLTLTCTASGFYFSSGYDMSWVRQAPGKGLEWIASIFTTSGSTWYANWAKGRFTISKTSSTTVTLQMTSLTDADTATYFCTKDGVGSFYMNLWGPGTLVTVSS VL: LVMTQTPASVEVAVGGTVTIKCQASQTIGSNLAWYQQRPGQPPKLLIYKAFTLASGVSSRFKGSGSGTQFTLTISGVECADAATYYCQQGATRINIDNAFGGGTEVVVK")
"no binding"
>>> value_observed("74F4 (antibody, human IgG1, V domains shown) VH: QEQLEESGGGLVQPEGSLTLTCTASGFSFSGDYYMSWVRQAPGKGLEWIASIYTGSLNTYYATWAKGRFTISLTSSTTVTLQMTSLTAADTATYFCARRNKNADYGHFDLWGPGTLVTVSS VL: YDMTQTPASVEVAVGGTVTIKCQASQSINDRLAWYQQSPGQPPKLLIYGASTLASGVPSRFKGSGSGTDFTLTISDLECADAATYYCQQGWTVSSLDNAFGGGTEVVAK")
"no binding"
>>> value_observed("55H3/76D6 (antibody, human IgG1, V domains shown) VH: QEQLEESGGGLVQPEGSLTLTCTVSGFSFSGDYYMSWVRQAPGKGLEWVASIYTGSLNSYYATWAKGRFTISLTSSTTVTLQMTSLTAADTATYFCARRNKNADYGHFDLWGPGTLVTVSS VL: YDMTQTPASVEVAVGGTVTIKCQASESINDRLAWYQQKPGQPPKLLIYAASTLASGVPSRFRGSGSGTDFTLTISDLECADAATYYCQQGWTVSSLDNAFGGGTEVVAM")
"no binding"
>>> value_observed("62E6 (antibody, human IgG1, V domains shown) VH: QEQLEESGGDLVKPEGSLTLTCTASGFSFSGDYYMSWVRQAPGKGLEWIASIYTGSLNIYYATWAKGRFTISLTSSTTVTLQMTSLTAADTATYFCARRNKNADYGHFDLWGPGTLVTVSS VL: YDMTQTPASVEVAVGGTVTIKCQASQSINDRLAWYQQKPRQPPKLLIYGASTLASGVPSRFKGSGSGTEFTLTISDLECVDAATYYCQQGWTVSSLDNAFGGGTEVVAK")
"no binding"

The values you see were collected from patent US20250171542A1.
